# System: mESC LDLR-Dup GFP reporter (SpCas9 MH-deletion repair)
# Experiment summary: fraction of GFP+ cells relative to DMSO control (fold change); higher = more MH-deletion repair to in-frame LDLR (or more editing)
# Measurement parameters: 2 µM; 7 days post-transfection
Structures can show the parent of a compound that is named as a salt.
Endpoint name: fraction of GFP+ cells

>>> quantitative_readout("CC1COc2c(N3CCN(C)CC3)c(F)cc3c(=O)c(C(=O)O)cn1c23 (stereo not given)")
1.08
>>> quantitative_readout("C#CCC(Cc1cnc2nc(N)nc(N)c2n1)c1ccc(C(=O)N[C@@H](CCC(=O)O)C(=O)O)cc1 (stereo not given in full) [Pralatrexate]")
1.43
>>> quantitative_readout("Nc1[nH]cnc2ncnc1-2 [Adenine sulfate]")
1.1
>>> quantitative_readout("COc1c(N2C[C@@H]3CCCN[C@@H]3C2)c(F)cc2c(=O)c(C(=O)O)cn(C3CC3)c12 [Moxifloxacin HCl]")
0.624
>>> quantitative_readout("N#Cc1ccc2ncnc(NCCc3ccccc3)c2c1")
0.863

----------
# Test system: mESC LDLR-Dup GFP reporter (SpCas9 MH-deletion repair)
# Experiment summary: fraction of GFP+ cells relative to DMSO control (fold change); higher = more MH-deletion repair to in-frame LDLR (or more editing)
# Measurement parameters: 2 µM; 7 days post-transfection
Where a name gives a salt, the structure may show the parent alone.
Label satisfied for high-side fraction of GFP+ cells (at or above 1) and not satisfied for low-side fraction of GFP+ cells (below it).

>>> group_label("CO[C@H]1/C=C/O[C@@]2(C)Oc3c(C)c(O)c4c(O)c(c(/C=N/N5CCN(C6CCCC6)CC5)c(O)c4c3C2=O)NC(=O)/C(C)=C\\C=C\\[C@H](C)[C@H](O)[C@@H](C)[C@@H](O)[C@@H](C)[C@H](OC(C)=O)[C@@H]1C [Rifapentine]")
"satisfied"
>>> group_label("C[C@H]1CNCCCN1S(=O)(=O)c1cccc2cncc(F)c12 [Ripasudil (K-115) hydrochloride dihydrate]")
"satisfied"
>>> group_label("N#Cc1ccc(COC[C@H]2O[C@@H](n3c(NCc4ccc(Cl)c(Cl)c4)nc4c(N)ncnc43)[C@H](O)[C@@H]2O)cc1")
"satisfied"
>>> group_label("Nc1nc(=O)c2nc(CNc3ccc(C(=O)N[C@@H](CCC(=O)O)C(=O)O)cc3)cnc2[nH]1 [Folic acid]")
"satisfied"
>>> group_label("Cc1cnc(NC(=O)Nc2cc(Br)c(C)cc2OC[C@@H]2CNCCO2)cn1")
"satisfied"
>>> group_label("O=C(O)[C@]1(Cc2cccc(Nc3nccs3)n2)CC[C@@H](Oc2cccc(Cl)c2F)CC1")
"satisfied"
>>> group_label("CN(C)CCCCC(=O)Nc1ccc(NC(=S)NC(=O)c2ccc(C(C)(C)C)cc2)cc1 [Tenovin-6]")
"not satisfied"
>>> group_label("O=c1[nH]c(=O)n(C2CC(O)C(CO)O2)cc1Br (centres undefined) [Bromodeoxyuridine (BrdU)]")
"satisfied"
>>> group_label("O=c1[nH]c(C2CCCN2)nc2c1oc1ccc(Cl)cc12 (centres undefined)")
"satisfied"
>>> group_label("C[C@]1(c2nc3c(C(N)=O)cccc3[nH]2)CCCN1 [Veliparib (ABT-888)]")
"not satisfied"
>>> group_label("O=C(O)c1cc(=O)[nH]c(=O)[nH]1 [Orotic acid (6-Carboxyuracil)]")
"not satisfied"
>>> group_label("Oc1cccc(-c2nc(N3CCOCC3)c3oc4ncccc4c3n2)c1")
"not satisfied"
>>> group_label("O=c1ccn([C@@H]2O[C@H](CO)[C@@H](O)[C@H]2O)c(=O)[nH]1 [Uridine]")
"satisfied"
>>> group_label("O=c1[nH]nc2c3c(cccc13)N=C(CN1Cc3ccccc3C1)N2")
"not satisfied"
